Reference source: patent US6300501A

system: ras farnesylation in ras-transformed cells; test: Gel shift assay; type: cell-based; conditions: ras-transformed cells, 18-hour incubation; read-out: Gel Shift (μM) MED (minimal effective dose to observe inhibition of ras farnesylation)
measure: minimal effective concentration (µM)
Return type: number; implicit unit µM.

Query COc1ccc(CN(CC(=O)NCC(C)c2ccccc2)C(=O)[C@H](Cc2c[nH]cn2)NC(=O)OCc2ccccc2)cc1 (some centres unmarked) [Example 20] yields minimal effective concentration of 0.05

Query CC(CNC(=O)CN(Cc1ccc(OCc2ccccc2)cc1)C(=O)[C@H](Cc1c[nH]cn1)NC(=O)OCc1ccccc1)c1ccccc1Cl (some centres unmarked) [Example 32] yields minimal effective concentration of 0.05

Query N#CC(CNC(=O)CN(Cc1ccc(OCc2ccccc2)cc1)C(=O)[C@H](Cc1c[nH]cn1)NC(=O)OCc1ccccc1)c1ccccc1 (some centres unmarked) [Example 45] yields minimal effective concentration of 0.05

Query O=C(CN(Cc1ccc(OCc2ccccc2)cc1)C(=O)[C@H](Cc1c[nH]cn1)NC(=O)OCc1ccccc1)NCCc1ccccc1Cl [Example 53] yields minimal effective concentration of 0.2

Query CC(CNC(=O)CN(Cc1ccc(OCc2ccncc2)cc1)C(=O)[C@H](Cc1c[nH]cn1)NC(=O)OCc1ccccc1)c1ccccc1 (some centres unmarked) [Example 34] yields minimal effective concentration of 0.05

Query COc1cccc(CN(CC(=O)NCC(C)c2ccccc2)C(=O)[C@H](Cc2c[nH]cn2)NC(=O)OCc2ccccc2)c1 (some centres unmarked) [Example 35] yields minimal effective concentration of 0.2

Query CC(C)(CNC(=O)CN(Cc1ccc(OCc2ccccn2)cc1)C(=O)[C@H](Cc1c[nH]cn1)NC(=O)OCc1ccccc1)c1ccccc1 [Example 40] yields minimal effective concentration of 0.01

Query CCC(CNC(=O)CN(Cc1ccc(OCc2ccccc2)cc1)C(=O)[C@H](Cc1c[nH]cn1)NC(=O)NCc1ccccc1)c1ccccc1 (some centres unmarked) [Example 27] yields minimal effective concentration of 0.2

Query CC(C(=O)NCC(C)(C)c1ccccc1)N(Cc1ccc(Cl)cc1)C(=O)[C@H](Cc1cnc[nH]1)NC(=O)OCc1ccccc1 (some centres unmarked) [Example 55] yields minimal effective concentration of 0.05

Query Cc1ccc(CN(CC(=O)NCC(C)(C)c2ccccc2)C(=O)[C@H](Cc2c[nH]cn2)NC(=O)OCc2ccccc2)cc1 [Example 56] yields minimal effective concentration of 0.05

Query O=C(CN(Cc1ccc(OCc2ccccc2)cc1)C(=O)[C@H](Cc1c[nH]cn1)NC(=O)OCc1ccccc1)NCCc1ccccc1Br [Example 9] yields minimal effective concentration of 0.2

Query CC(CNC(=O)CN(Cc1ccc(OCc2ccccc2)cc1)C(=O)[C@H](Cc1c[nH]cn1)NC(=O)OCc1ccccc1)c1ccccc1 (some centres unmarked) [Example 4] yields minimal effective concentration of 0.05

Query COc1ccccc1CN(CC(=O)NCC(C)c1ccccc1)C(=O)[C@H](Cc1c[nH]cn1)NC(=O)OCc1ccccc1 (some centres unmarked) [Example 33] yields minimal effective concentration of 0.05

Query O=C(CN(Cc1ccc(OCc2ccccc2)cc1)C(=O)[C@H](Cc1c[nH]cn1)NC(=O)OCc1ccccc1)NCC(c1ccccc1)c1ccccc1 [Example 5] yields minimal effective concentration of 0.2

Query O=C(CN(Cc1ccc(OCc2ccccc2)cc1)C(=O)[C@H](Cc1c[nH]cn1)NC(=O)OCc1ccccc1)NCCc1ccccc1F [Example 7] yields minimal effective concentration of 0.1

Query CC(C)(CNC(=O)CN(Cc1ccc(OCc2cccnc2)cc1)C(=O)[C@H](Cc1c[nH]cn1)NC(=O)OCc1ccccc1)c1ccccc1 [Example 50] yields minimal effective concentration of 0.05

Query CC(C)(CNC(=O)CN(Cc1ccccc1OCc1ccncc1)C(=O)[C@H](Cc1c[nH]cn1)NC(=O)OCc1ccccc1)c1ccccc1 [Example 60] yields minimal effective concentration of 0.05

Query CC(C)(CNC(=O)CN(Cc1ccccc1)C(=O)[C@H](Cc1c[nH]cn1)NC(=O)OCc1ccccc1)c1ccccc1 [Example 42] yields minimal effective concentration of 0.05

Query CC(CNC(=O)CN(Cc1ccccc1Cl)C(=O)[C@H](Cc1c[nH]cn1)NC(=O)OCc1ccccc1)c1ccccc1 (some centres unmarked) [Example 28] yields minimal effective concentration of 0.2

Query O=C(CN(Cc1ccc(OCc2ccccc2)cc1)C(=O)[C@H](Cc1c[nH]cn1)NC(=O)OCc1ccccc1)NCC(c1ccccc1)c1ccccc1Cl (some centres unmarked) [Example 24] yields minimal effective concentration of 0.2

Query CN(Cc1ccccc1)C(=O)N[C@@H](Cc1c[nH]cn1)C(=O)N(CC(=O)NCC(C)(C)c1ccccc1)Cc1ccc(Cl)cc1 [Example 58] yields minimal effective concentration of 0.05

Query O=C(CN(Cc1ccc(OCc2ccccc2)cc1)C(=O)[C@H](Cc1c[nH]cn1)NC(=O)OCc1ccccc1)NCC(c1ccccc1)c1ccccn1 (some centres unmarked) [Example 12] yields minimal effective concentration of 0.2

Query CC(CNC(=O)CN(Cc1ccc(OCc2ccccc2)cc1)C(=O)[C@H](Cc1cnc[nH]1)NC(=O)OCc1ccccc1)c1ccccc1N (some centres unmarked) [Example 21] yields minimal effective concentration of 0.05
